- System: TK-10 renal
- method_description: NCI-60 one-dose screen, 48 h
- cond: 10 µM unless noted
This is part of a sample that, as a whole, favours compounds with a hit. Of some 83,000 tested, about 20% had one in any assay. Calls of active or inactive are those of the source. The calls were made as follows: active = growth percent below 10; inactive = the rest.
Answer with one of the outcomes true (1) = active, false (0) = inactive

Prompt line: # fetch the recorded call for Cc1c(O)c(=O)n(-c2ccccc2)n1C here
Response line: false (0)

Prompt line: Recorded test call requested for CCOC(=O)c1ccccc1SC(C[N+](=O)[O-])c1ccccc1 (stereo not drawn)
Response line: false (0)

Prompt line: What is the recorded call for this molecule in the test? Cc1cccc(C(=O)O)n1
Response line: false (0)

Prompt line: Dear all, I need the recorded test outcome for COc1cc(/C=C/C(=O)c2c(C)nc3ccccc3c2C)ccc1OCCCOc1cc2c(cc1OC)C(=O)N1CCC[C@H]1C=N2 , thank you.
Response line: true (1)

Prompt line: In this assay, the call recorded for Oc1ccc(-c2cnc(-c3ccccc3)[nH]2)c(O)c1 was what?
Response line: false (0)

Prompt line: # fetch the recorded call for CC(=O)N(C)c1ccc(Nc2cc(C)[nH]c3ccc4ncnc4c23)cc1 here
Response line: false (0)

Prompt line: Recorded test outcome, item C=CCn1c(SCC(=O)Nc2ccc(/C(C)=N\O)cc2)nnc1-c1cc(-c2ccc(Cl)cc2)nc2ccccc12
Response line: false (0)

Prompt line: Per the records of this test, what outcome belongs to Fc1ccc(-c2ccnc3nc(-c4ccncc4)nn23)cc1 ?
Response line: false (0)

Prompt line: Please share the test call associated with COc1c(-c2cc(-c3ccc(C)o3)[nH]c(=O)n2)c(O)cc2occc12 .
Response line: false (0)

Prompt line: Status in this test for CC(C)NC(=O)OCC#CCOC(=O)NC(C)C ?
Response line: false (0)

Prompt line: Write down the call the test reported for this molecule. Item: CCOC(CN1CCN(CC(C)C(=O)c2ccccc2)CC1)c1ccccc1 (stereo not drawn)
Response line: false (0)

Prompt line: Hi, do you know how CCNS(=O)(=O)c1ccc(C)cc1 came out in this test?
Response line: false (0)

Prompt line: GET /call?item= O=c1[nH]c2ccccc2n2cc3cccnc3c12 returns the recorded outcome of this test.
Response line: false (0)

Prompt line: Answer briefly: the call reported for COc1cc(C2C=C(C)N=C3SC=NN32)cc(OC)c1OC (stereo not drawn) in this assay.
Response line: false (0)

Prompt line: Please indicate how the test categorized CCCCn1c(C)nc2cc(Nc3nc(Cl)nc4nc[nH]c34)ccc21 .
Response line: false (0)

Prompt line: Outcome? F
Response line: true (1)

Prompt line: Which outcome was assigned to CCOC(=O)C(=CNc1ccccc1Cl)C(=O)OCC in this test?
Response line: false (0)

Prompt line: Per the records of this test, what outcome belongs to Fc1ccc2c(CN3CCO[C@H](COc4cccc(Cl)c4)C3)c[nH]c2c1 ?
Response line: false (0)

---

- Test system: T-47D breast
- method_description: NCI-60 one-dose screen, 48 h (100 = growth as untreated, 0 = no growth, -100 = all killed)
- cond: 10 µM unless noted
This is part of a sample that, as a whole, favours compounds with a hit. Of some 83,000 tested, about 20% had one in any assay.
For each record, write down the corresponding growth.
Numeric only. Scale: %

Prompt line: Tell me the measured growth of COc1ccc(CCN2COc3c([C@@H](C)CCC=C(C)C)ccc(C)c3C2)cc1OC , please.
Response line: -23

Prompt line: What value of measured growth is listed for N#Cc1nc(-c2ccc(Cl)cc2)cc(-c2ccc(Nc3nc(N4CCCCC4)nc(N4CCCCC4)n3)cc2)c1N ?
Response line: 100

Prompt line: What value of growth has been reported for the following compound? COc1ccc(-c2cn(-c3cccc(C(=O)/C=C/c4ccc(O)c(OC)c4)c3)c(=O)[nH]2)cc1
Response line: 32.1

Prompt line: Can you look up the measured growth of COc1ccccc1/C=N\NC(=S)Nc1ccc(F)cc1 for me?
Response line: 72.5

Prompt line: // growth lookup, key: Cc1nn(-c2ccc(Cl)cc2)c(=O)n1CCN1CCOCC1
Response line: 78.3

Prompt line: Which value of growth has been reported for COc1ccc(C(=O)C(C#N)c2cc(OC)c(OC)c(OC)c2)cc1 (centres undefined) in the records?
Response line: 98.3

Prompt line: Name the recorded growth for O=C(Nc1ccc(Oc2ccc(Nc3nc4ccccc4s3)cc2)cc1)Nc1ccc(Cl)c(C(F)(F)F)c1 .
Response line: 3.71

Prompt line: Which value of growth has been reported for C=CCn1c(C)nc2cc(Nc3nc(N4CCCC4)nc4nc[nH]c34)ccc21 in the records?
Response line: 45

Prompt line: What does the record list as growth for Cc1cc(NC(=O)c2ccc(N)cc2)ccc1N=Nc1ccc2cc(S(=O)(=O)O)cc(S(=O)(=O)O)c2c1 ?
Response line: 105

---

- System: PC-3 prostate
- method_description: NCI-60 one-dose screen, 48 h
- cond: 10 µM unless noted
This is part of a sample that, as a whole, favours compounds with a hit. Of some 83,000 tested, about 20% had one in any assay. Activity calls are given as the source filed them. The calls were made as follows: active = growth percent below 10; inactive = the rest.
In this exercise, the only acceptable responses are True for active, False for inactive

Prompt line: Hi, do you know how NC(N)=N/N=C\c1cccc(OCc2ccccc2)c1 came out in this test?
Response line: False

Prompt line: Answer briefly: the call reported for C=CCn1c(C)nc2cc(Nc3nc(N4CCCC4)nc4nc[nH]c34)ccc21 in this assay.
Response line: False

Prompt line: Look up the recorded call for O=C(Nc1ccc(Oc2ccc(Nc3nc4ccccc4s3)cc2)cc1)Nc1ccc(Cl)c(C(F)(F)F)c1 in this test.
Response line: True

Prompt line: Record request — test call for CO[C@@]12[C@@H]3NC3CN1C1=C(C(=O)C(N)=C(C)C1=O)[C@@H]2COC(N)=O (some centres not stated)
Response line: False

Prompt line: I'd appreciate the recorded outcome for Cc1ccc(Nc2nc(NCCO)c3ccccc3n2)cc1C from this test.
Response line: False

Prompt line: Any idea what this test logged for CCOC(=O)Nc1ccc2nc(-c3cscn3)[nH]c2c1 ?
Response line: False

Prompt line: Called result for Brc1ccccc1Cn1c(-c2cncs2)nc2ccccc21
Response line: False

Prompt line: // return assay outcome for Cc1ccc(O)c(Cc2ccccc2)c1
Response line: False

Prompt line: So what was the verdict on CN(C)c1ccc(/C=N/Nc2nnc3n2N=C(c2ccc(Cl)cc2)CS3)cc1 in this test?
Response line: False

Prompt line: Kindly provide the recorded test outcome for the following compound: COc1ccc(C(=O)c2cc(C)c(OC)c(C)c2)cc1OC(=O)CCl
Response line: False

Prompt line: Can you look up the reported call for CCOC(=O)c1ccc(N(CCC(=O)O)C(C)=O)cc1 for me?
Response line: False

Prompt line: Kindly provide the recorded test outcome for the following compound: COc1cc(C2CC(c3ccc(Nc4ccnc5cc(Cl)ccc45)cc3)=NN2c2ccccc2)cc(OC)c1OC (configuration not stated)
Response line: False

Prompt line: Which outcome was entered for the compound COc1ccc(-c2nc3ccc(Cc4ccc5nc(-c6ccc(OC)cc6)[nH]c5c4)cc3[nH]2)cc1 in this test?
Response line: False

Prompt line: Please indicate how the test categorized CCOC(C)(c1ccc(Cl)cc1)C1CCNCC1 (configuration not stated) .
Response line: False

Prompt line: Per the records of this test, what outcome belongs to Nc1cc2nc3ccccc3oc-2cc1=O ?
Response line: False

Prompt line: For NC(N)=N/N=C\c1ccc(OCc2ccccc2)cc1 , which call appears in the assay record?
Response line: False

Prompt line: Lab log entry: CC1=NC(c2ccc(Cl)cc2)C2=C(N1)/C(=C/c1ccc(Cl)cc1)CCC2 (configuration not stated) — outcome as called in the assay?
Response line: False

---

- Tested on: NCI/ADR-RES ovarian
- method_description: NCI-60 one-dose screen, 48 h (100 = growth as untreated, 0 = no growth, -100 = all killed)
- cond: 10 µM unless noted
- Method: Growth inhibition of the NCI/ADR-RES human […] tumor cell line is measured as a screen for anti-cancer activity. Cells are grown in 96 well plates and exposed to the test compound for 48 hours. Compounds are tested at a single concentration, which is 10^-5 M for most compounds. The reported endpoint is percent growth (GI% or GIPRCNT), where numbers from 0 - 100% represent growth inhibition, and numbers from -100% - 0 represent cell death. For example, a value of 40 represents 60% growth inhibition. […]
About 83,000 compounds went through this panel and 20% of them were active in at least one assay; those are over-represented in the sample as a whole.
measured_endpoint: growth (%)
Give the number; % is assumed, so skip it.

Prompt line: What is its growth for NCI/ADR-RES ovarian? Entry: C/C(=C\C(=N\N=C(N)N)c1ccc(Cl)cc1)c1ccc(Cl)cc1
Response line: -69.6

Prompt line: # value lookup — system NCI/ADR-RES ovarian, readout growth, item COc1ccc(C2C=C(c3ccc(Cl)cc3)N=C3SC=CN32)cc1 (centres undefined)
Response line: 104

Prompt line: Provide the documented growth with NCI/ADR-RES ovarian as the system for COc1ccc(NC(=O)/C=C/c2ccc(Cl)c(Cl)c2)cn1
Response line: 1.03

Prompt line: Form field: growth recorded for Nc1nc(N)c2cc(Sc3ccc(Cl)cc3)ccc2n1 with NCI/ADR-RES ovarian (enter value)
Response line: 36.2

Prompt line: Request: growth, test system NCI/ADR-RES ovarian, entry COc1ccc2c(c1)CCCC21C(=O)Nc2ccccc21 (centres undefined)
Response line: 104

Prompt line: Enter reported growth observed with NCI/ADR-RES ovarian for Fc1ccc(-c2nnc(N3CCOCC3)c3ccccc23)cc1
Response line: 109

Prompt line: Notebook: pull reported growth for NCI/ADR-RES ovarian, entry C=CCOc1c(Br)cc(Br)cc1Br
Response line: 63.7

Prompt line: Test system NCI/ADR-RES ovarian; read-out growth; what value for CCCCn1c(-c2ccc(F)cc2)nc2cc(OC)c(OC)cc2c1=O ?
Response line: 93.9

Prompt line: Recall the recorded growth for Clc1ncnc2scc(C3COc4ccccc4O3)c12 (centres undefined) with NCI/ADR-RES ovarian and state it.
Response line: 109

Prompt line: Item CCN(CC)CCCC(C)Nc1cnc(C(=O)Nc2cccc3ccc(OC)nc23)cn1 (centres undefined) with NCI/ADR-RES ovarian - growth?
Response line: 76.1

Prompt line: Any idea what growth came out for Cc1nc([C@H]2CC[C@H]3[C@@H]4CCC5=CC(=O)CC[C@]5(C)[C@H]4CC[C@]23C)cs1 on NCI/ADR-RES ovarian?
Response line: 43.7

Prompt line: Can you look up growth on NCI/ADR-RES ovarian for C=C(C)[C@@H]1CC[C@]2(C)[C@H](CC=C3[C@@H]4C[C@](C)(C(=O)N5CCN(C)CC5)CC[C@]4(C)CC[C@]32C)[C@@]1(C)CCC#N ?
Response line: 75.6

Prompt line: GET /values?readout=growth&system=NCI/ADR-RES ovarian&item= N=c1n(Cc2ccccc2)c(N)cc(=O)n1Cc1ccccc1
Response line: 10.6

Prompt line: Request - read-out growth | tested on NCI/ADR-RES ovarian | compound Cc1cc(C)c([O-])c(CN(C)CCN(C)Cc2cc(C)cc(C)c2[O-])c1.O=C([O-])c1cccc(C(=O)[O-])n1.[Ti+4]
Response line: 7.88
